# experimental_details: Growth inhibition of human FHC cells after 48 hrs by MTT assay
# Format: cell-based
endpoint_name: GI50 at 48 h

Enquiry: Record request: GI50 at 48 h value, item CC(C)CN(C(=O)c1cccnc1)c1c2ccccc2c(=O)n2c1[nH]c1ccccc12
Return: > 200 µM

* * *

# experimental_target: Mitogen-activated protein kinase 3 (Homo sapiens, UniProt P27361)
# Sequence (P27361 whole entry, the tested form may be a part): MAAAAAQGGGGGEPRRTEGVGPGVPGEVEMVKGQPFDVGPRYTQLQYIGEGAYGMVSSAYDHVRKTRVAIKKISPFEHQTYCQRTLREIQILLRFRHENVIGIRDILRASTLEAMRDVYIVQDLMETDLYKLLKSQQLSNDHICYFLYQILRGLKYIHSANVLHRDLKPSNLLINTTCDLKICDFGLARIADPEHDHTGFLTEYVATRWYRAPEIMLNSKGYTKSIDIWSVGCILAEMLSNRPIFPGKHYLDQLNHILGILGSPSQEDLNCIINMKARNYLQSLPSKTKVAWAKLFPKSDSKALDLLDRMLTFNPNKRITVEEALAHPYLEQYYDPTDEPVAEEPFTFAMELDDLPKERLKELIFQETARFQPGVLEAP
# experimental_details: Binding affinity to full length human ERK1 (M1 to P379 residues) expressed in bacterial expression system by KINOMEscan assay
endpoint_name: Kd

Enquiry: Record request: Kd value, item CC(C)CN(C(=O)c1cccnc1)c1c2ccccc2c(=O)n2c1[nH]c1ccccc12
Return: ≥ 5 µM
